Source: ChEMBL document CHEMBL5149976

System: Panel NCI-60 (60 carcinoma cell lines)
Assay: Cytotoxicity against human Panel NCI-60 (60 carcinoma cell lines) assessed as cell growth inhibition
Assay type: functional, cell-based
observedProperty: IC50 (nM)
Supply the numeric figure in nM, leaving out any unit text.

Check out these entries, answers already filled in.
>>> numericvalue("COc1ccc(-c2nc(-c3nc4ccc(OC)cc4[nH]3)cc3c2[nH]c2ccccc23)cc1")
1900
>>> numericvalue("Fc1ccc(-c2nc(-c3nc4ccc(Cl)cc4[nH]3)cc3c2[nH]c2ccccc23)cc1")
1900
>>> numericvalue("COc1ccc2nc(-c3cc4c([nH]c5ccccc54)c(-c4ccc(F)c(F)c4)n3)[nH]c2c1")
1900
>>> numericvalue("COC(=O)[C@@H]1Cc2c([nH]c3ccccc23)[C@@H](c2ccccc2)N1")
360
>>> numericvalue("COc1ccc(-c2nc(-c3nc4ccc(F)cc4[nH]3)cc3c2[nH]c2ccccc23)cc1")
1900
>>> numericvalue("c1ccc(-c2nc(-c3nc4ccccc4[nH]3)cc3c2[nH]c2ccccc23)cc1")
360

Attention now shifts to the item below.
// query Consider the compound O=Cc1cc2c([nH]c3ccccc32)c(-c2ccccc2)n1 and give its measured IC50.
// result 360
